These entries and their values trace back to paper PMC10587743.

Target: CDK-2 (Homo sapiens, UniProt P24941)
measured endpoint: IC50 (nM)
Numbers only, in nM.

entry smiles	IC50 / nM
Cc1ccc(NC(=O)c2c(N3C(=O)c4ccc(F)cc4C3=O)c(C#N)c3n2CCCC3)cc1	402

Request: Fill in: IC50 of N#Cc1c(N2C(=O)c3ccc(F)cc3C2=O)c(C(=O)Nc2ccc(F)cc2)n2c1CCCC2 is ___
Result: 118

---

Reported IC50 for target or system EGFR TK (Homo sapiens, UniProt P00533), by entry.

entry smiles	system	measured endpoint	meas value
N#Cc1c(N2C(=O)c3ccc(F)cc3C2=O)c(C(=O)Nc2ccc(F)cc2)n2c1CCC2	EGFR TK (Homo sapiens, UniProt P00533)	IC50	362 nM
N#Cc1c(N2C(=O)c3ccc(F)cc3C2=O)c(C(=O)Nc2ccc(F)cc2)n2c1CCCC2	EGFR TK (Homo sapiens, UniProt P00533)	IC50	62 nM

Now take the following molecule into account.
Request: Look at this molecule and give its reported IC50. Cc1ccc(NC(=O)c2c(N3C(=O)c4ccc(F)cc4C3=O)c(C#N)c3n2CCCC3)cc1
Result: 130 nM
